molecular target: T1, recombinant LILRB1 (human, UniProt Q8NHL6 24-461); assay: ELISA, coated recombinant LILRB1, antibody titration;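 note: serially diluted anti-LILRB1 antibodies incubated 60 min at 37 °C on plates coated with 50 ng/well recombinant protein, TMB colorimetric development read as absorbance at 450 nm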
T1 construct: LILRB1-Fc proteins were also made; also called LILRB1 recombinant proteins
T1 sequence (Q8NHL6 24-461 limits assumed): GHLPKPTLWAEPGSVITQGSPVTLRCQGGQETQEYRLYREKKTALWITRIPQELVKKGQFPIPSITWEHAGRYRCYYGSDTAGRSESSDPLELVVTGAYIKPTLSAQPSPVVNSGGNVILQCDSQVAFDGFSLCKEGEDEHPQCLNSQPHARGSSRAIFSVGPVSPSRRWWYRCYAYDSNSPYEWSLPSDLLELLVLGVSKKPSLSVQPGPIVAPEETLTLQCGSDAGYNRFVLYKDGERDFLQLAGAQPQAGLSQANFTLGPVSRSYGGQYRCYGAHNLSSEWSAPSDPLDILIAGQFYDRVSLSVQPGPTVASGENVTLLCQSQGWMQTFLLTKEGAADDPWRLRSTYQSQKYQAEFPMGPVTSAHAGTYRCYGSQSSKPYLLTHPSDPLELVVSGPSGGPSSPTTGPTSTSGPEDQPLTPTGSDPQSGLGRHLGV
METRIC: EC50 (µg/mL)
Give the quantity in µg/mL, number only.

Input B1-#125 (antibody, V domains shown, recombinant rabbit IgG) VH: EQSLEESGGGLVQPEGSLTLTCTASGFSFTKNYYMCWVRQAPGKGLEWIGCIYAGSTNTFYASWAKGRFTISKASSTTVDLKMTSLTVADTATYFCARDFVSYLNLWGPGTLVTVSS VL: ELDLTQTPSSSSAAVGGTVTINCQASQSVYNKNYLSWFQQKPGQPPKLLIYYASTLASGVPSRFKGSGSGTEFTLTISDVVCDDAATYYCAAYKGVSDDGISFGGGTEVEIK . Output EC50: 0.0076

Input B1-#224 (antibody, V domains shown, recombinant rabbit IgG) VH: EQSVEESGGGLVQPEGSLTLTCTASGIDFSSGAWICWVRQAPGKGLELIACIFTTSGFTYYASWAKGRFTISKTSSTTVTLQMTSLTAADTATYFCARDIYSYGMDLWGPGTLVTISS VL: ELVLTQTPSSVSEPVGGTVTIKCQASQSISSSYLAWYQQKPGQPPKFLIYSASTLASGVPSRFKGSGSGTEFTLTISDLECADAATYYCQSTYISSSNYGAAFGGGTEVEIK . Output EC50: 0.0109

Input B1-#22 (antibody, V domains shown, recombinant rabbit IgG) VH: EQSLEESGGGLVKPGASLTLTCKASGFDFSSNDYMCWVRQAPGKGLEWIGCIYGGDGHTYYATWAKGRFTISKASSTTVTLQMTSLTAADTASYFCARGYSYGDTGYADAILTLDLWGPGTLVTVSS VL: ELDLTQTPASVEAAVGGTVTIKCQASQTIGSYLSWYQQKPGQRPKLLIYEASKLASGVPSWFKGSGSGTEFTLTISDLECADAATYYCQSNYYRAGGNYGGAFGGGTEVEIK . Output EC50: 0.0292

Input B1-#209 (antibody, V domains shown, recombinant rabbit IgG) VH: SQSVEESGGDLVKPGGTLTLTCTASRIDLNNYYYISWVRQAPGKGLEWIGVVATDSSVTWYASWAKGQFTISKTSSTTVTLQMTSLTAADTATYFCARGSGAATNGVWWVMGDGMDLWGPGTLVTVSS VL: ELVMTQTPASVSEPVGGTVTIKCQASQSISSYLSWYQQKPGQPPKRLIYKASTLASGVPSRFKGSGSGTEFTLTISGVQCADAATYYCQNNYHSGSSNGGGFAFGGGTEVEIK . Output EC50: 0.011

Input B1-#7 (antibody, V domains shown, recombinant rabbit IgG) VH: EQSLEESGGGLVKPGASLTVTCAVSGFSLNSYAITWVRQAPGKGLEYIGYIDTGASITDYASWAKGRFTISKTSSTTVTLEMTSLTDADTATYFCARGFSMFKLWGPGTLVTISS VL: ELDLTQTPSSVSAAVGGTVTISCQASQSVYGNNRLAWYHQKPGQPPKRLIYLASTLDSGVPSRFKGAGSGTQFTLTISDLECDDAATYYCAGGYAGNFNAFGGGTEVEIK . Output EC50: 0.0159
